# System: Mitogen-activated protein kinase 9 (Homo sapiens);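 also: reported figure is the mean inhibition of JNK2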
# Assay Conditions: at 1 µM

| Compound | System | Measurement Unit | inhibition |
| --- | --- | --- | --- |
| Fc1ccc(-c2nn3ncccc3c2-c2ccnc(Nc3ccc4c(c3)OCCO4)n2)cc1 | Mitogen-activated protein kinase 9 (Homo sapiens) | % | 84.9 |
| COC(=O)Nc1nc2ccc(S(=O)(=O)c3ccc(NC(=O)Nc4cc(C(F)(F)F)ccc4F)cc3)cc2[nH]1 | Mitogen-activated protein kinase 9 (Homo sapiens) | % | 3.4 |
| CC1=C(C(=O)Nc2cc(Cl)c3[nH]ncc3c2)C(c2ccc(C(F)(F)F)cc2)CC(=O)N1 (centres undefined) | Mitogen-activated protein kinase 9 (Homo sapiens) | % | 2.16 |
| CN1CCC(n2cnc(-c3ccc(F)cc3)c2-c2ccnc(N)n2)CC1 | Mitogen-activated protein kinase 9 (Homo sapiens) | % | 11.3 |
| NC(=O)c1sc(-n2cnc3ccc(C(F)(F)F)cc32)cc1OCc1ccccc1Br | Mitogen-activated protein kinase 9 (Homo sapiens) | % | 5.5 |
| [O-][S+]1CCN(Cc2ccc(-c3ccc4ncnc(Nc5ccc(OCc6cccc(F)c6)c(Cl)c5)c4c3)o2)CC1 | Mitogen-activated protein kinase 9 (Homo sapiens) | % | 1.33 |
| CCCN(CCS(C)(=O)=O)Cc1ccc(-c2ccc3ncnc(Nc4ccc(OCc5cccc(F)c5)c(Cl)c4)c3c2)o1 | Mitogen-activated protein kinase 9 (Homo sapiens) | % | 4.94 |
| N#Cc1c(NC(=O)c2ccc(F)cc2)sc2c1CCCC2 | Mitogen-activated protein kinase 9 (Homo sapiens) | % | 2.49 |
| COc1ccc2c(-c3ccnc(Nc4cccc(OC(F)(F)F)c4)n3)cnn2n1 | Mitogen-activated protein kinase 9 (Homo sapiens) | % | 11.4 |
| CNC(=O)c1cccc(C#Cc2cncnc2Nc2ccc(OCc3cccc(F)c3)c(Cl)c2)c1 | Mitogen-activated protein kinase 9 (Homo sapiens) | % | 1.25 |
| CC(C)(CO)CNC(=O)c1ccc2c(c1)/C(=N/Nc1ccc(S(N)(=O)=O)cc1)C(=O)N2 | Mitogen-activated protein kinase 9 (Homo sapiens) | % | 8.39 |
| O=C(Nc1n[nH]c2cc(-c3ccc(F)cc3)ccc12)C1CC1 | Mitogen-activated protein kinase 9 (Homo sapiens) | % | 3.68 |
| COc1ccc2[nH]c3c4[nH]c5ccc(OC)cc5c4c4c(c3c2c1)C(=O)NC4=O | Mitogen-activated protein kinase 9 (Homo sapiens) | % | 21.7 |
| CN(C)CCOc1ccc(-c2nc(-c3ccncc3)c(-c3ccc4c(c3)CC/C4=N\O)[nH]2)cc1 | Mitogen-activated protein kinase 9 (Homo sapiens) | % | 6.51 |
| NS(=O)(=O)c1ccc(Nc2ncc(-c3ccccc3)o2)cc1 | Mitogen-activated protein kinase 9 (Homo sapiens) | % | 7.69 |
| CC(=O)NCc1cccc(C#Cc2cncnc2Nc2ccc(OCc3cccc(F)c3)c(Cl)c2)c1 | Mitogen-activated protein kinase 9 (Homo sapiens) | % | 0.54 |
| N#Cc1c(NC(=O)CN2CCOCC2)sc2c1CCCC2 | Mitogen-activated protein kinase 9 (Homo sapiens) | % | 9.83 |
| COC(=O)c1sc(-n2cnc3cc(OC)c(OC)cc32)cc1OCc1ccccc1C(F)(F)F | Mitogen-activated protein kinase 9 (Homo sapiens) | % | 6.58 |
| COc1cc(/C=N/Nc2ncnc3[nH]ncc23)ccc1O | Mitogen-activated protein kinase 9 (Homo sapiens) | % | 5.5 |
| Nc1nc(-c2ccc(F)cc2)c(-c2ccc3ncccc3n2)s1 | Mitogen-activated protein kinase 9 (Homo sapiens) | % | 25.3 |
| NS(=O)(=O)c1ccc(N/N=C2\C(=O)Nc3ccc4ncccc4c32)cc1 | Mitogen-activated protein kinase 9 (Homo sapiens) | % | 33.7 |
| COc1ccc(-c2oc3ncnc(N)c3c2-c2ccc(NC(=O)Nc3cc(C(F)(F)F)ccc3F)cc2)cc1 | Mitogen-activated protein kinase 9 (Homo sapiens) | % | 19.9 |
| Nc1nc(-c2cccc(Cl)c2)c(-c2ccc3ncccc3n2)s1 | Mitogen-activated protein kinase 9 (Homo sapiens) | % | 13.9 |
| COc1cccc(-n2ncc3c(N/N=C/c4ccc(F)cc4)ncnc32)c1 | Mitogen-activated protein kinase 9 (Homo sapiens) | % | 4.28 |
